target: PAR4 (Homo sapiens (Human)); assay: FLIPR assay in PAR4-expressing HEK293 cells (PAR4 antagonist activity, calcium mobilization); type: cell-based; conditions: FLIPR assay as described in Example A
Entries annotated with measured IC50
Unit nM implied. Number only.

Report measured IC50; entry is CSc1nn2cc(-c3nc4ccccc4o3)nc2s1
213

Report measured IC50; entry is COc1nn2cc(-c3cc4cc(F)ccc4o3)nc2s1
3.48

---

biological target: PAR4 (Homo sapiens (Human), UniProt Q96RI0); test: FLIPR assay in PAR4-expressing HEK293 cells (PAR4 antagonist activity, calcium mobilization); format: cell-based; details: FLIPR assay as described in Example A
Sequence (Q96RI0 18-385): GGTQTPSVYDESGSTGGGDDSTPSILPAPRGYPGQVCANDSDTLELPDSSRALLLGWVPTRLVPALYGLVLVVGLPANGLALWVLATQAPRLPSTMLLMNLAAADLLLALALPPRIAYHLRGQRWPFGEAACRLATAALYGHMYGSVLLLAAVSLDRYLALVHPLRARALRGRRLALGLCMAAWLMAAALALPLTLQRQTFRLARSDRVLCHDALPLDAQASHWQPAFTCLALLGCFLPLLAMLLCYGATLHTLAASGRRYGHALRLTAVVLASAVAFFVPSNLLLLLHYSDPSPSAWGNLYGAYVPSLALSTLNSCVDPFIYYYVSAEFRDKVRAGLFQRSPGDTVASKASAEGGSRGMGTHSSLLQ
Lab note: class by IC50, see low class = under 10 nM, middle class = from 10 nM up to 400 nM, high class = 400 nM and over

Solved entries (count: 3):
[[record]]
compound = "CCc1nn2cc(-c3nc4ccc(OC(C)C)cc4o3)nc2s1 [Example 87]"
tested_on = "PAR4 (Homo sapiens (Human), UniProt Q96RI0)"
assigned_class = "high class"

[[record]]
compound = "CSc1nn2cc(-c3cc4ccc(C(=O)NCc5ccccc5)cc4o3)nc2s1 [Example 220]"
tested_on = "PAR4 (Homo sapiens (Human), UniProt Q96RI0)"
assigned_class = "middle class"

[[record]]
compound = "CSc1nn2cc(-c3nc4cc(F)ccc4s3)nc2s1 [Example 182]"
tested_on = "PAR4 (Homo sapiens (Human), UniProt Q96RI0)"
assigned_class = "middle class"


Could you place CCc1nn2cc(-c3cc4cc(OC)ccc4o3)nc2s1 [Example 61] in its proper category? Many thanks.
high class

Could you place CCc1nn2cc(-c3nc4ccc(OCCC(C)C)cc4o3)nc2s1 [Example 77] in its proper category? Many thanks.
high class
